Values from patent US8399419B2

Tested on: E. coli ATCC 25922
Quantity name: MIC

Q: Lookup: MIC / E. coli ATCC 25922 / NCC(O)CN[C@@H]1C[C@H](N)[C@@H](O[C@H]2O[C@H](CN)CC[C@H]2N)[C@H](O[C@@H]2O[C@H](CO)[C@@H](O[C@H]3O[C@@H](CN)CC[C@H]3N)[C@H]2O)[C@H]1O (stereo partly drawn) [Example 12/Compound 3]
Ans: 1 to 16 µg/mL

Q: Repeat with NC[C@@H]1CC[C@@H](N)[C@@H](O[C@H]2[C@H](O[C@@H]3O[C@H](CO)[C@@H](O[C@H]4O[C@@H](CN)CC[C@H]4N)[C@H]3O)[C@@H](O)[C@H](NC(=O)[C@@H](O)CN)C[C@@H]2N)O1 [Example 13/Compound 4]
Ans: 1 to 16 µg/mL

Q: Repeat with NC[C@@H]1CC[C@@H](N)[C@@H](O[C@H]2[C@H](O[C@@H]3O[C@H](CO)[C@@H](O[C@H]4O[C@@H](CN)CC[C@H]4N)[C@H]3O)[C@@H](O)[C@H](NC(=O)[C@H](O)C(F)(F)CN)C[C@@H]2N)O1 [Example 27/Compound 6]
Ans: 1 to 16 µg/mL

Q: Repeat with NC[C@@H]1CC[C@@H](N)[C@@H](O[C@H]2[C@H](O[C@@H]3O[C@H](CO)[C@@H](O[C@H]4O[C@@H](CN)CC[C@H]4N)[C@H]3O)[C@@H](O)[C@H](NC(=O)[C@@H](N)CO)C[C@@H]2N)O1 [Example 20/Compound 3]
Ans: 1 to 16 µg/mL

Q: Repeat with CC(=O)N[C@@H]1C[C@H](N)[C@@H](O[C@H]2O[C@H](CN)CC[C@H]2N)[C@H](O[C@@H]2O[C@H](CO)[C@@H](O[C@H]3O[C@@H](CN)CC[C@H]3N)[C@H]2O)[C@H]1O [Example 8/Compound 3]
Ans: 1 to 16 µg/mL

Q: Repeat with NC[C@@H]1CC[C@@H](N)[C@@H](O[C@H]2[C@H](O[C@@H]3O[C@H](CO)[C@@H](O[C@H]4O[C@@H](CN)CC[C@H]4N)[C@H]3O)[C@@H](O)[C@H](NCCO)C[C@@H]2N)O1 [Example 15/Compound 3]
Ans: 1 to 16 µg/mL

Q: Repeat with NC[C@@H]1CC[C@@H](N)[C@@H](O[C@H]2[C@H](O[C@@H]3O[C@H](CO)[C@@H](O[C@H]4O[C@@H](CN)CC[C@H]4N)[C@H]3O)[C@@H](O)[C@H](NC(=O)C3(O)CNC3)C[C@@H]2N)O1 [Example 10/Compound 4]
Ans: ≤ 1 µg/mL

Q: Repeat with NC[C@@H]1CC[C@@H](N)[C@@H](O[C@H]2[C@H](O[C@@H]3O[C@H](CO)[C@@H](O[C@H]4O[C@@H](CN)CC[C@H]4N)[C@H]3O)[C@@H](O)[C@H](NC(CO)CO)C[C@@H]2N)O1 [Example 21/Compound 3]
Ans: 1 to 16 µg/mL

Q: Repeat with NCCCS(=O)(=O)N[C@@H]1C[C@H](N)[C@@H](O[C@H]2O[C@H](CN)CC[C@H]2N)[C@H](O[C@@H]2O[C@H](CO)[C@@H](O[C@H]3O[C@@H](CN)CC[C@H]3N)[C@H]2O)[C@H]1O [Example 7/Compound 4]
Ans: 1 to 16 µg/mL
